Origin of the recorded values: patent US20140221346A1

# CC50 at 5 days per record follows
- experimentalDetails: Test B: Cytotoxicity Assay
- Format: cell-based
- conditionSet: human, uninfected MT-4 cells, same protocol as Test A, CellTiter-Glo
- Protocol: For the antiviral assay, 40 μL of 1× test concentration of 3-fold serially diluted compound in culture medium with 10% FBS was added to each well of a 384-well plate (10 concentrations) in quadruplicate. […] Cell lysis was carried out by incubating at room temperature for 10 min and then chemiluminescence was read. Compound cytotoxicity and the corresponding CC50 values was determined using the same protocol as described in the antiviral assay (Test A) except that uninfected cells were used.
# unit: µM | format: bare number

Reference set, count: 3
molecule: NC(=O)c1cc(-c2cnc(N3CCC(O)CC3)nc2[C@H](Cc2cc(F)cc(F)c2)NC(=O)Cn2nc(C(F)F)c3c2C(F)(F)CCC3(F)F)ccc1F [Compound 21]
CC50 at 5 days (µM): 22.5

molecule: NC(=O)c1cc(-c2cnc(NCCN3CCOCC3)nc2[C@H](Cc2cc(F)cc(F)c2)NC(=O)Cn2nc(C(F)F)c3c2C(F)(F)CCC3(F)F)ccc1F [Compound 28]
CC50 at 5 days (µM): 14.1

molecule: NC(=O)c1cc(-c2cnc(NC3CCOC3)nc2[C@H](Cc2cc(F)cc(F)c2)NC(=O)Cn2nc(C(F)F)c3c2C(F)(F)CCC3(F)F)ccc1F (stereo partly shown) [Compound 25]
CC50 at 5 days (µM): 37.7

Problem: I would be grateful if you could share the reported CC50 at 5 days for COCCNc1ncc(-c2ccc(F)c(C(N)=O)c2)c([C@@H](Cc2cc(F)cc(F)c2)NC(=O)Cn2nc(C(F)(F)F)c3c2CCCC3)n1 [Compound 11J] .
Solution: 16.3

###

- experimentalDetails: Test B: Cytotoxicity Assay
- Assay type: cell-based
- conditionSet: human, uninfected MT-4 cells, same protocol as Test A, CellTiter-Glo
Quick rule for you: CC50 at 5 days under 20 µM gets 1, anything else gets 0.

Problem: Quick check: CC50 at 5 days of `NC(=O)c1cc(-c2cnc(NCCN3CCCC3=O)nc2[C@H](Cc2cc(F)cc(F)c2)NC(=O)Cn2nc(C(F)F)c3c2C(F)(F)CCC3(F)F)ccc1F` under 20 µM?
Solution: 0

Problem: Hello, is CC50 at 5 days of the following compound strictly smaller than 20 µM? CNc1ncc(-c2ccc(F)c(C(N)=O)c2)c([C@H](Cc2cc(F)cc(F)c2)NC(=O)Cn2nc(C(F)F)c3c2C(F)(F)CCC3(F)F)n1 [Compound 14B]
Solution: 0

Problem: Please indicate whether the reported CC50 at 5 days of CN(C)CCNc1ncc(-c2ccc(F)c(C(N)=O)c2)c([C@H](Cc2cc(F)cc(F)c2)NC(=O)Cn2nc(C(F)F)c3c2C(F)(F)CCC3(F)F)n1 [Compound 16B] is strictly below 20 µM.
Solution: 1

###

- experimentalDetails: Test B: Cytotoxicity Assay
- Assay type: cell-based
- conditionSet: human, uninfected MT-4 cells, same protocol as Test A, CellTiter-Glo
Here, each record is paired with measured CC50 at 5 days data.
// units = µM; emit number, no label

Answered cases to consult:
compound: Nc1ccc(-c2cccc(CO)c2)c(C(Cc2cc(F)cc(F)c2)NC(=O)Cc2c[nH]c3ccc(F)cc23)n1 (stereo not shown)
unitOfMeasure: µM
CC50 at 5 days: 14.4
//
compound: NC(=O)c1cc(-c2cnc(N3CC4(COC4)C3)nc2[C@H](Cc2cc(F)cc(F)c2)NC(=O)Cn2nc(C(F)F)c3c2C(F)(F)CCC3(F)F)ccc1F [Compound 15B]
unitOfMeasure: µM
CC50 at 5 days: 36.3
//
compound: NC(=O)c1cc(-c2ccc(N)nc2[C@@H](Cc2cc(F)cc(F)c2)NC(=O)Cc2c[nH]c3ccc(F)cc23)ccc1F
unitOfMeasure: µM
CC50 at 5 days: 25.2
//
compound: Nc1ccc(-c2cccc(S(N)(=O)=O)c2)c(C(Cc2cc(F)cc(F)c2)NC(=O)Cc2c[nH]c3ccc(F)cc23)n1 (stereo not shown)
unitOfMeasure: µM
CC50 at 5 days: 28.7
//
compound: Nc1ccc(-c2ccc(Cl)cc2)c(C(Cc2cc(F)cc(F)c2)NC(=O)Cc2c[nH]c3ccc(F)cc23)n1 (stereo not shown)
unitOfMeasure: µM
CC50 at 5 days: 9.34
//
compound: O=C(Cn1nc(C(F)F)c2c1C(F)(F)CCC2(F)F)N[C@@H](Cc1cc(F)cc(F)c1)c1nc(-n2cncn2)ncc1-c1ccc2c(c1)C(=O)NC2 [Compound 29D]
unitOfMeasure: µM
CC50 at 5 days: 40
//
compound: Nc1ccc(-c2cccc(OCC(F)(F)F)c2)c(C(Cc2cc(F)cc(F)c2)NC(=O)Cc2c[nH]c3ccc(F)cc23)n1 (stereo not shown)
unitOfMeasure: µM
CC50 at 5 days: 11.7
//
compound: NC(=O)c1cccc(-c2ccc(N)nc2C(Cc2cc(F)cc(F)c2)NC(=O)Cc2c[nH]c3ccc(F)cc23)c1 (stereo not shown)
unitOfMeasure: µM
CC50 at 5 days: 13.1

Problem: // returns reported CC50 at 5 days for input NC(=O)c1cc(-c2cnc(NCCN3CCNC3=O)nc2[C@H](Cc2cc(F)cc(F)c2)NC(=O)Cn2nc(C(F)F)c3c2C(F)(F)CCC3(F)F)ccc1F [Compound 22B]
Solution: 34.1

Problem: Param item = Nc1ccc(-c2cccc(F)c2)c(C(Cc2cc(F)cc(F)c2)NC(=O)Cc2c[nH]c3ccc(F)cc23)n1 (stereo not shown) ; retrieve measured CC50 at 5 days.
Solution: 17.5

Problem: What CC50 at 5 days value was documented for this compound, `NC(=O)c1cc(-c2cnc(NCCN3CCCC3)nc2[C@H](Cc2cc(F)cc(F)c2)NC(=O)Cn2nc(C(F)F)c3c2C(F)(F)CCC3(F)F)ccc1F` ?
Solution: 3.5

###

- experimentalDetails: Test B: Cytotoxicity Assay
- Type: cell-based
- conditionSet: human, uninfected MT-4 cells, same protocol as Test A, CellTiter-Glo
# label = true (1) if CC50 at 5 days < 20 µM else false (0)

Take a look at these entries with their results.
compound: NC(=O)c1cc(-c2cnc(NCC3CC3)nc2[C@H](Cc2cc(F)cc(F)c2)NC(=O)Cn2nc(C(F)F)c3c2C(F)(F)CCC3(F)F)ccc1F [Compound 13B]
labelClass: true (1)
//
compound: CN(C)c1ncc(-c2ccc(F)c(C(N)=O)c2)c([C@H](Cc2cc(F)cc(F)c2)NC(=O)Cn2nc(C(F)F)c3c2C(F)(F)CCC3(F)F)n1 [Compound 18B]
labelClass: false (0)
//
compound: Nc1ccc(-c2ccc(Oc3ccccc3)cc2)c(C(Cc2cc(F)cc(F)c2)NC(=O)Cc2c[nH]c3ccc(F)cc23)n1 (stereo not drawn) [Compound 7]
labelClass: true (1)
//
compound: COCCNc1ncc(-c2ccc(F)c(C(N)=O)c2)c([C@H](Cc2cc(F)cc(F)c2)NC(=O)Cn2nc(C(F)F)c3c2C(F)(F)CCC3(F)F)n1 [Compound 12E]
labelClass: true (1)
//
compound: COc1cc(-c2ccc(N)nc2C(Cc2cc(F)cc(F)c2)NC(=O)Cc2c[nH]c3ccc(F)cc23)ccn1 (stereo not drawn) [Compound 10]
labelClass: false (0)
//
compound: NC(=O)c1cc(-c2cnc(NCCn3ccnn3)nc2[C@H](Cc2cc(F)cc(F)c2)NC(=O)Cn2nc(C(F)F)c3c2C(F)(F)CCC3(F)F)ccc1F [Compound 23F]
labelClass: false (0)

Problem: Strictly below 20 µM: is that where CC50 at 5 days of COCCOCCNc1ncc(-c2ccc(F)c(C(N)=O)c2)c([C@H](Cc2cc(F)cc(F)c2)NC(=O)Cn2nc(C(F)F)c3c2C(F)(F)CCC3(F)F)n1 [Compound 17B] sits?
Solution: false (0)

Problem: State whether 20 µM exceeds CC50 at 5 days recorded for NC(=O)c1cc(-c2ccc(N)nc2[C@H](Cc2cc(F)cc(F)c2)NC(=O)Cc2c[nH]c3ccc(F)cc23)ccc1F [Compound 1H] .
Solution: false (0)
